biological target: Cannabinoid receptor 2 (Mus musculus)
Sequence (P47936 whole entry): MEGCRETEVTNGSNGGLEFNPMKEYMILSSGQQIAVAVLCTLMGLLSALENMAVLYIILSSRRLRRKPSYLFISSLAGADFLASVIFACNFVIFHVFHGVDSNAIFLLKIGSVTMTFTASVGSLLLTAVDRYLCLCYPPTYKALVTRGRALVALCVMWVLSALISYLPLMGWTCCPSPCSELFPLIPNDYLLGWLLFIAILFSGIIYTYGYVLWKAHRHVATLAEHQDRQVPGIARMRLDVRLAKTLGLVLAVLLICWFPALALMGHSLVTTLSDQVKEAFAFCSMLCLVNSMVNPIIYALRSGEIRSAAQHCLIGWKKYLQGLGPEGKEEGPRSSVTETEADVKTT
pKi: −log10 of the molar value.
REPORTED PROPERTY: pKi

1) O=C(N1CCc2ccccc21)C12CC3CC(CC(C3)C1)C2
< 5.00
2) O=C(N1CCc2ccccc21)C12CC3CC(CC1C3)C2
< 5.00
3) CCOC1CCN(C(=O)C23CC4CC(CC(C4)C2)C3)c2ccccc21 (stereo not drawn)
< 5.00

----------
target: Cannabinoid receptor 2 (Homo sapiens); test: Agonist activity at human CB2 receptor by cAMP read-out assay; format: functional
REPORTED PROPERTY: EC50 (µM)

1. CC(=O)c1ccccc1NC(=O)C12CC3CC(CC(C3)C1)C2
0.1
2. O=C(N1CCc2ccc(C(F)(F)F)cc21)C12CC3CC(CC(C3)C1)C2
0.015
3. Cc1csc(NC(=O)C23CC4CC(CC(C4)C2)C3)n1
0.6
4. O=C(NC(=S)N1CCCCC1)C12CC3CC(CC(C3)C1)C2
1.4
5. CC1(C)CN(C(=O)C23CC4CC(CC(C4)C2)C3)c2ccccc21
0.016
6. CCOc1ccc(NC(=O)C23CC4CC(CC(C4)C2)C3)cc1
1.2

----------
target: Cannabinoid receptor 2 (Homo sapiens); experiment: Agonist activity at human CB2 receptor by beta-arrestin recruitment assay
REPORTED PROPERTY: EC50 (µM)

1. COC1CCN(C(=O)C23CC4CC(CC(C4)C2)C3)c2ccccc21 (stereo not given)
1.3
2. Cc1csc(NC(=O)C23CC4CC(CC(C4)C2)C3)n1
0.9
3. O=C(N1CCc2ccc(C(F)(F)F)cc21)C12CC3CC(CC(C3)C1)C2
0.75
4. O=C(NC12CC3CC(CC(C3)C1)C2)N1Cc2ccccc2C1
0.7

----------
biological target: Cannabinoid receptor 2 (Homo sapiens, UniProt P34972); experiment: Binding affinity to human CB2 receptor
Sequence (P34972 whole entry): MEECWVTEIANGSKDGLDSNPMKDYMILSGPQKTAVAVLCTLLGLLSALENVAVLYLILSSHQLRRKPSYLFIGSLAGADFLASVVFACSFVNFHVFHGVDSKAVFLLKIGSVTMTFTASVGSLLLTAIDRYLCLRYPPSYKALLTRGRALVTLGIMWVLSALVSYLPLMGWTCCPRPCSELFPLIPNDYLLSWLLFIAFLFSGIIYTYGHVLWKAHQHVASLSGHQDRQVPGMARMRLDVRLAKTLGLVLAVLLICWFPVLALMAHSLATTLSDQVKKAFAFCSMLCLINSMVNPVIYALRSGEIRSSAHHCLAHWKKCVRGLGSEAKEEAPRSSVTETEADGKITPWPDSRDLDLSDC
pKi: −log10 of the molar value.
REPORTED PROPERTY: pKi

1) CCOC1CCN(C(=O)C23CC4CC(CC(C4)C2)C3)c2ccccc21 (centres undefined)
6.00
2) CC1(C)CN(C(=O)C23CC4CC(CC(C4)C2)C3)c2ccccc21
6.30
3) O=C(N1CCc2ccccc21)C12CC3CC(CC(C3)C1)C2
6.34
4) O=C(NC12CC3CC(CC(C3)C1)C2)N1Cc2ccccc2C1
6.57
